# MFC (μg/ml) range listing for each entry below
- Test system: Saccharomyces cerevisiae
- METHOD: Broth microdilution MIC
- Type: cell-based
- REPORTED_CONDITIONS: Table 1 (MICs), 1 strain tested more than once (control ATCC 36375), 48 hr
- Method: Medium: Liquid RPMI 1640 (RPMI) medium with L-glutamine and without sodium bicarbonate (Sigma Chemical Co., R-6504; St. Louis, Mo.) buffered with 0.165M MOPS (34.54 g/liter) was used for in vitro antifungal tests. […] Aspergillus fumigatus and Mucor spp. were grown for 1 wk at 35° C. […] The stock suspensions of all filamentous fungi were measured at 530 nm and adjusted to 85-87% transmission. The concentration (1×10^6 to 5×10^6 CFU/ml) was determined by hemacytometer count or plate count on SDA. […]
Bridge positions count the residues as written; N and C are the ends. Square brackets hold non-standard residues; d marks the D form. Peptide text beside a SMILES is read from it. * marks the point of attachment. Asp(3S-OH) = N[C@H](C(=O)O)[C@H](O)C(=O)O; Thr(4-Cl) = N[C@H](C(=O)O)[C@H](O)CCl; X1 = CCCCCCCCC[C@@H](O)CC(=O)*; dDab = NCC[C@@H](N)C(=O)O; Dab = NCC[C@H](N)C(=O)O; Dhb = C/C=C(\N)C(=O)O

# COMPOUND, MFC (μg/ml) range, µg/mL
data = [
    ("C[C@@H]1[C@H](O)[C@@H](C)/C=C/C=C/C=C/C=C/C=C/C=C/C=C/[C@H](O[C@@H]2O[C@H](C)[C@@H](O)[C@H](N)[C@@H]2O)C[C@@H]2O[C@](O)(C[C@@H](O)C[C@@H](O)[C@H](O)CC[C@@H](O)C[C@@H](O)CC(=O)O[C@H]1C)C[C@H](O)[C@H]2C(=O)O [AmB, amphotericin B, reference compound]", 0.3),
    ("C/C=C1\\NC(=O)[C@H](Cc2ccccc2)NC(=O)[C@H](CCCN=C(N)N)NC(=O)[C@@H](CCN)NC(=O)[C@H](CCN)NC(=O)[C@@H](CO)NC(=O)[C@@H](NC(=O)C[C@H](O)CCCCCCCCC)COC(=O)[C@H]([C@H](O)CCl)NC(=O)[C@H]([C@H](O)C(=O)O)NC1=O [SR-E, Syringomycin-E] (X1-S[dS][Dab][dDab]RF[Dhb][Asp(3S-OH)][Thr(4-Cl)]; ester 1-C)", 2.5),
]

###

# MIC range listing for each entry below
- Test system: Candida parapsilosis
- METHOD: Broth microdilution MIC
- Assay type: cell-based
- REPORTED_CONDITIONS: Table 1 (MICs), 2 isolates, 48 hr
Bridge positions count the residues as written; N and C are the ends. Square brackets hold non-standard residues; d marks the D form. Peptide text beside a SMILES is read from it. * marks the point of attachment. Asp(3S-OH) = N[C@H](C(=O)O)[C@H](O)C(=O)O; Thr(4-Cl) = N[C@H](C(=O)O)[C@H](O)CCl; X1 = CCCCCCCCC[C@@H](O)CC(=O)*; dDab = NCC[C@@H](N)C(=O)O; Dab = NCC[C@H](N)C(=O)O; Dhb = C/C=C(\N)C(=O)O

# COMPOUND, MIC range (µg/mL)
rows = [
    ("CC(=O)N1CCN(c2ccc(OCC3COC(Cn4ccnc4)(c4ccc(Cl)cc4Cl)O3)cc2)CC1 (centres unmarked) [Ktz, ketoconazole, reference compound]", 0.02),
    ("C[C@@H]1[C@H](O)[C@@H](C)/C=C/C=C/C=C/C=C/C=C/C=C/C=C/[C@H](O[C@@H]2O[C@H](C)[C@@H](O)[C@H](N)[C@@H]2O)C[C@@H]2O[C@](O)(C[C@@H](O)C[C@@H](O)[C@H](O)CC[C@@H](O)C[C@@H](O)CC(=O)O[C@H]1C)C[C@H](O)[C@H]2C(=O)O [AmB, amphotericin B, reference compound]", 0.6),
    ("C/C=C1\\NC(=O)[C@H](Cc2ccccc2)NC(=O)[C@H](CCCN=C(N)N)NC(=O)[C@@H](CCN)NC(=O)[C@H](CCN)NC(=O)[C@@H](CO)NC(=O)[C@@H](NC(=O)C[C@H](O)CCCCCCCCC)COC(=O)[C@H]([C@H](O)CCl)NC(=O)[C@H]([C@H](O)C(=O)O)NC1=O [SR-E, Syringomycin-E] (X1-S[dS][Dab][dDab]RF[Dhb][Asp(3S-OH)][Thr(4-Cl)]; ester 1-C)", 2.5),
]

###

- System: Candida rugosa
- METHOD: Minimum Fungicidal Concentration (MFC)
- Type: cell-based
- REPORTED_CONDITIONS: Table 2, 2 isolates, 24 hr
MEASUREMENT_KIND: MFC (μg/ml) range

# MOLECULE, MEASUREMENT_KIND, RESULT
rows = [
    ("CC(=O)N1CCN(c2ccc(OCC3COC(Cn4ccnc4)(c4ccc(Cl)cc4Cl)O3)cc2)CC1 (stereo not shown) [Ktz, ketoconazole, reference compound]", "MFC (μg/ml) range", "≤0.02 to 0.08 µg/mL"),
]

###

- System: Cryptococcus neoformans
- METHOD: Broth microdilution MIC
- Type: cell-based
- REPORTED_CONDITIONS: Table 1 (MICs); Cryptococcus neoformans, 14 isolates; 72 hr
Numbered stars: 1 amine (or outer) side, 2 acyl side, 3 side chain; on linkers, the order of the positions; unused ones are H or OH. Bridge positions count the residues as written; N and C are the ends. Square brackets hold non-standard residues; d marks the D form. Peptide text beside a SMILES is read from it. * marks the point of attachment. ξ: configuration not given here. ξAsp(3ξ-OH) = NC(C(=O)O)C(O)C(=O)O; X3 = O=C(C(N[*:1])C(O)CCl)[*:2]; X2 = CCCCCCCCCCCC(O)CC(=O)*; Orn = NCCC[CH](N)C(=O)O; hSer = N[CH](CCO)C(=O)O; Dab = NCC[CH](N)C(=O)O; Dhb = C/C=C(\N)C(=O)O
# MIC range listing for each entry below

# COMPOUND, MIC range
records = [
    ("C[C@@H]1[C@H](O)[C@@H](C)/C=C/C=C/C=C/C=C/C=C/C=C/C=C/[C@H](O[C@@H]2O[C@H](C)[C@@H](O)[C@H](N)[C@@H]2O)C[C@@H]2O[C@](O)(C[C@@H](O)C[C@@H](O)[C@H](O)CC[C@@H](O)C[C@@H](O)CC(=O)O[C@H]1C)C[C@H](O)[C@H]2C(=O)O [AmB, amphotericin B, reference compound]", "0.08 to 1.25 µg/mL"),
    ("C/C=C1\\NC(=O)C(C(C)O)NC(=O)C(CCCN)NC(=O)C(CCO)NC(=O)C(CCN)NC(=O)C(CCN)NC(=O)C(NC(=O)CC(O)CCCCCCCCCCC)COC(=O)C(C(O)CCl)NC(=O)C(C(O)C(=O)O)NC1=O (stereo not drawn) [SS-A, syringostatin-A] (X2-S[Dab][Dab][hSer][Orn]T[Dhb][ξAsp(3ξ-OH)][X3]; ester 1-C; configuration not given here)", "2.5 to 10 µg/mL"),
    ("C/C=C1\\NC(=O)C(C(C)O)NC(=O)C(CCCN)NC(=O)C(CCO)NC(=O)CNC(=O)C(CCN)NC(=O)C(NC(=O)CC(O)CCCCCCCCCCC)COC(=O)C(C(O)CCl)NC(=O)C(C(O)C(=O)O)NC1=O (stereo not drawn) [ST-B, Syringotoxin B] (X2-S[Dab]G[hSer][Orn]T[Dhb][ξAsp(3ξ-OH)][X3]; ester 1-C; configuration not given here)", "0.8 to 6.25 µg/mL"),
]

###

- System: Trichophyton spp.
- METHOD: Minimum Fungicidal Concentration (MFC)
- Format: cell-based
- REPORTED_CONDITIONS: Table 2, 3 isolates, 7 d
Numbered stars: 1 amine (or outer) side, 2 acyl side, 3 side chain; on linkers, the order of the positions; unused ones are H or OH. Bridge positions count the residues as written; N and C are the ends. Square brackets hold non-standard residues; d marks the D form. Peptide text beside a SMILES is read from it. * marks the point of attachment. ξ: configuration not given here. Asp(3S-OH) = N[C@H](C(=O)O)[C@H](O)C(=O)O; Thr(4-Cl) = N[C@H](C(=O)O)[C@H](O)CCl; ξAsp(3ξ-OH) = NC(C(=O)O)C(O)C(=O)O; X3 = O=C(C(N[*:1])C(O)CCl)[*:2]; X1 = CCCCCCCCC[C@@H](O)CC(=O)*; X2 = CCCCCCCCCCCC(O)CC(=O)*; dDab = NCC[C@@H](N)C(=O)O; Dab = NCC[CH](N)C(=O)O; Orn = NCCC[CH](N)C(=O)O; hSer = N[CH](CCO)C(=O)O; Dhb = C/C=C(\N)C(=O)O
MEASUREMENT_KIND: MFC (μg/ml) range

# COMPOUND, MEASUREMENT_KIND, RESULT
measured = [
    ("C/C=C1\\NC(=O)C(C(C)O)NC(=O)C(CCCN)NC(=O)C(CCO)NC(=O)CNC(=O)C(CCN)NC(=O)C(NC(=O)CC(O)CCCCCCCCCCC)COC(=O)C(C(O)CCl)NC(=O)C(C(O)C(=O)O)NC1=O (stereo not shown) [ST-B, Syringotoxin B] (X2-S[Dab]G[hSer][Orn]T[Dhb][ξAsp(3ξ-OH)][X3]; ester 1-C; configuration not given here)", "MFC (μg/ml) range", "25 to 200 µg/mL"),
    ("C/C=C1\\NC(=O)C(C(C)O)NC(=O)C(CCCN)NC(=O)C(CCO)NC(=O)C(CCN)NC(=O)C(CCN)NC(=O)C(NC(=O)CC(O)CCCCCCCCCCC)COC(=O)C(C(O)CCl)NC(=O)C(C(O)C(=O)O)NC1=O (stereo not shown) [SS-A, syringostatin-A] (X2-S[Dab][Dab][hSer][Orn]T[Dhb][ξAsp(3ξ-OH)][X3]; ester 1-C; configuration not given here)", "MFC (μg/ml) range", "5 µg/mL"),
    ("C[C@@H]1[C@H](O)[C@@H](C)/C=C/C=C/C=C/C=C/C=C/C=C/C=C/[C@H](O[C@@H]2O[C@H](C)[C@@H](O)[C@H](N)[C@@H]2O)C[C@@H]2O[C@](O)(C[C@@H](O)C[C@@H](O)[C@H](O)CC[C@@H](O)C[C@@H](O)CC(=O)O[C@H]1C)C[C@H](O)[C@H]2C(=O)O [AmB, amphotericin B, reference compound]", "MFC (μg/ml) range", "0.3 to 0.6 µg/mL"),
    ("C/C=C1\\NC(=O)[C@H](Cc2ccccc2)NC(=O)[C@H](CCCN=C(N)N)NC(=O)[C@@H](CCN)NC(=O)[C@H](CCN)NC(=O)[C@@H](CO)NC(=O)[C@@H](NC(=O)C[C@H](O)CCCCCCCCC)COC(=O)[C@H]([C@H](O)CCl)NC(=O)[C@H]([C@H](O)C(=O)O)NC1=O [SR-E, Syringomycin-E] (X1-S[dS][Dab][dDab]RF[Dhb][Asp(3S-OH)][Thr(4-Cl)]; ester 1-C)", "MFC (μg/ml) range", "6.25 to 25 µg/mL"),
]
